system: MDA-MB-468 breast; test: NCI-60 one-dose screen, 48 h; conditions: 10 µM unless noted
The panel holds about 83,000 compounds, 20% with a hit somewhere; the sample as a whole holds those more often. Active and inactive are the calls of the source. How the source made its calls: active means growth percent below 10; inactive means the rest.
The reply should name one outcome from Yes (active), No (inactive)

Solved entries (count: 2):
COc1cc(C2C=C(c3ccc(C)cc3)Nc3nc(SC)[nH]c(=O)c32)ccc1Oc1ccnc2cc(Cl)ccc12 (stereo not given): No
Fc1ccc(-n2cc(COc3ncnc4sc5c(c34)CCCC5)nn2)cc1Cl: No

query: For COc1ccc(C/C(C)=C(\c2ccc(Cl)cc2)c2ccc(OCCN3CCCC3)cc2)cc1 , what call appears in the results of this test?
result: No

query: For COC(=O)[C@H](Cc1cn(C)cn1)NC(=O)[C@H](C)NC(=O)Nc1cc(C(F)(F)F)cc(C(F)(F)F)c1 , what call appears in the results of this test?
result: Yes

query: For c1cnc2nc3c(cc2c1)oc1ccccc13 , what call appears in the results of this test?
result: No

* * *

Listed below: growth values for each entry.
Test system: MDA-MB-468 breast
Experiment: NCI-60 one-dose screen, 48 h (100 = growth as untreated, 0 = no growth, -100 = all killed)
Settings: 10 µM unless noted
Description: Growth inhibition of the MDA-MB-468 human Breast tumor cell line is measured as a screen for anti-cancer activity. Cells are grown in 96 well plates and exposed to the test compound for 48 hours. Compounds are tested at a single concentration, which is 10^-5 M for most compounds. The reported endpoint is percent growth (GI% or GIPRCNT), where numbers from 0 - 100% represent growth inhibition, and numbers from -100% - 0 represent cell death. […]
This is part of a sample that, as a whole, favours compounds with a hit. Of some 83,000 tested, about 20% had one in any assay.
The reply should be a number in %, with the unit left off.

Use the examples below as a reference point.
CCCCCc1c(C)[nH]c(/C=C2\N=C(c3ccc[nH]3)C=C2CC)c1C: -92.1
Cn1c2ccccc2c2c3[nH][nH]c(=O)c3c3c4ccccc4[nH]c3c21: 49.5
COc1ccc(/C=C2\CN(C(=O)C(Cl)Cl)C/C(=C\c3ccc(OC)c(OC)c3)C2=O)cc1OC: -14.2

Here is another compound to look at.
query: Please report the recorded growth for Cc1cc(-c2ccc(N=Nc3c(S(=O)(=O)O)cc4cc(S(=O)(=O)O)cc(O)c4c3O)c(C)c2)ccc1N=Nc1c(S(=O)(=O)O)cc2cc(S(=O)(=O)O)cc(O)c2c1O .
result: 109

* * *

tested on: MDA-MB-468 breast; assay: NCI-60 one-dose screen, 48 h (100 = growth as untreated, 0 = no growth, -100 = all killed); conditions: 10 µM unless noted
About 83,000 compounds went through this panel and 20% of them were active in at least one assay; those are over-represented in the sample as a whole.
OUTCOME MEASURE: growth (%)
The reply should be a number in %, with the unit left off.

Use the examples below as a reference point.
Cc1ccc(Nc2cccc3ccccc23)cc1: -11.7
CCCN1C(=O)N(CCC)C2C1NN=c1s/c(=C3\C(=O)N(C(C)C)c4ccccc43)c(=O)n12 (stereo not given): 35.7
CCOC1(OCC)OC(c2ccccc2)=C(C#N)C(/C=C\c2ccccc2)C1(OCC)OCC (stereo not given): 56.7
COc1cc(OC)c(/C=C/C(=O)c2ccc(Nc3ncnc4ccccc34)cc2)c(OC)c1: -34.8

Here is another compound to look at.
query: Provide value of growth for this record tested with MDA-MB-468 breast: COc1ccc(/C=N\NC(=O)CN2CCN(c3cc4c(cc3F)c(=O)c(C(=O)N/N=C/c3ccc(OC)c(OC)c3)cn4C3CC3)CC2)cc1OC
result: -27.6

* * *

test system: MDA-MB-468 breast; test: NCI-60 one-dose screen, 48 h (100 = growth as untreated, 0 = no growth, -100 = all killed); conditions: 10 µM unless noted
About 83,000 compounds went through this panel and 20% of them were active in at least one assay; those are over-represented in the sample as a whole. Calls of active or inactive are those of the source. Rule for the calls: active = growth percent below 10; inactive = the rest.
OUTCOME MEASURE: growth

query: Please report the recorded growth for O=C1C(N2CCN(c3ccccc3)CC2)=C(Cl)C(=O)c2ncccc21 .
result: -62.8% (active)

query: Please report the recorded growth for CN1CCN(C)c2cncc(Br)c2C1=O .
result: 106% (inactive)

query: Please report the recorded growth for O=C(CCCSc1nc(-c2ccccc2)cc(-c2ccc(Cl)cc2)n1)NO .
result: -43.9% (active)

query: Please report the recorded growth for CCN(CC)c1nc(SCc2ccccc2Cl)ncc1C .
result: 69.6% (inactive)

query: Please report the recorded growth for CNc1nnc2n(-c3ccccc3)c(=O)c3cnn(-c4ccccc4)c3n12 .
result: 103% (inactive)

query: Please report the recorded growth for COc1cc(C2=NN(c3ccc(S(N)(=O)=O)cc3)C(c3ccc(Cl)cc3)C2)cc(OC)c1OC (centres undefined) .
result: 38.3% (inactive)

query: Please report the recorded growth for Cc1c(CN2CCN(C(=O)[C@H](C)O)CC2)sc2c(N3CCOCC3)nc(-c3cnc(N)nc3)nc12 .
result: -49.6% (active)

query: Please report the recorded growth for COC(=O)c1ccc2c(c1)nc(-c1ccc(O)c(OC)c1)n2-c1cc(C(C)(C)C)[nH]n1 .
result: 104% (inactive)

* * *

system: MDA-MB-468 breast; assay: NCI-60 one-dose screen, 48 h (100 = growth as untreated, 0 = no growth, -100 = all killed); details: 10 µM unless noted
The panel holds about 83,000 compounds, 20% with a hit somewhere; the sample as a whole holds those more often.
Listed below: growth values for each entry.
The reply should be a number in %, with the unit left off.

Use the examples below as a reference point.
C#C[C@]1(O)CC[C@H]2[C@@H]3CC=C4c5sc(-c6ccc(C)cc6)nc5CC[C@]4(C)[C@H]3CC[C@@]21C: 84.4
O=C(/C=C/c1cccc([N+](=O)[O-])c1)c1ccc(O)c(CN2CCN(c3cc4c(cc3F)c(=O)c(C(=O)O)cn4C3CC3)CC2)c1: -24.5
CCN1C(=O)N(CC)C2C1NN=c1s/c(=C\c3ccccc3)c(=O)n12 (stereo unspecified): 22.5

query: Please report the recorded growth for C[C@@H]1CCC[C@H]1CC(N)C(=O)O (stereo partly specified) .
result: 92.8

query: Please report the recorded growth for CC(=O)/C(=C\c1c(-c2ccccc2)[nH]c2ccccc12)S(=O)(=O)c1ccccc1 .
result: 6.12

* * *

test system: MDA-MB-468 breast; assay: NCI-60 one-dose screen, 48 h; details: 10 µM unless noted
This is part of a sample that, as a whole, favours compounds with a hit. Of some 83,000 tested, about 20% had one in any assay. Calls of active or inactive are those of the source. How the source made its calls: active means growth percent below 10; inactive means the rest.
The reply should name one outcome from active, inactive

Solved entries (count: 3):
N#Cc1ncc(-c2ccc(C(F)(F)F)cc2)c(NC2CCCCCC2)n1: active
CCN(CC)Cc1c(-c2cccc(OC(F)(F)F)c2)[nH]c2ccc(N3CCCC3)cc2c1=O: inactive
C/C(=C(/C)C1CC1CCN(C(=O)c1ccc([N+](=O)[O-])cc1)S(=O)(=O)c1ccc(C)cc1)C1CCCCC1 (stereo not drawn): inactive

query: For Cc1ccc(Cc2c(C=O)nc(N)[nH]c2=O)c2ccccc12 , what call appears in the results of this test?
result: inactive

query: For NS(=O)(=O)c1ccc(CCN2C(=O)/C(=C\c3ccc(Cl)cc3)C=C2c2ccc3ccccc3c2)cc1 , what call appears in the results of this test?
result: inactive

query: For C=C1C(=O)O[C@H]2[C@H]1CC/C(Cn1cc(-c3ccccc3)nn1)=C\CC[C@@]1(C)O[C@@H]21 , what call appears in the results of this test?
result: active

query: For CC(C)=CCC[C@](C)(O)C1CC[C@]2(C)[C@@H]1CC[C@@H]1[C@@]3(C)CC/C(=N\OCCC#N)C(C)(C)[C@@H]3CC[C@]12C (stereo partly drawn) , what call appears in the results of this test?
result: inactive

* * *

system: MDA-MB-468 breast; assay: NCI-60 one-dose screen, 48 h; conditions: 10 µM unless noted
Compounds without any hit were thinned out: in the full panel of roughly 83,000, 20% have a hit. Activity calls are given as the source filed them. The calls were made as follows: active = growth percent below 10; inactive = the rest.
The reply should name one outcome from t (active), f (inactive)

Solved entries (count: 10):
CN(C)CCCC1(c2ccc(F)cc2)OCc2cc(-c3ccc(C(F)(F)F)nc3)ccc21 (stereo unspecified): f
COc1ccc(-c2ccc(-c3ccc(C(=N)N)nc3)s2)cc1: t
Cc1nc(Nc2cccc(NC(=O)Nc3ccc(Cl)cc3)c2)c2ccccc2n1: f
O=C(NNc1ccccc1)c1ncc[nH]1: f
CC1CN(CC(O)c2ccc(Br)cc2)CCO1 (stereo unspecified): f
CCCCCCCOc1cccc(/C=C2\N=C3SCCCN3C2=O)c1: f
COc1cc(C2C3=C(COC3=O)N(CCO)c3cc4c(cc32)OCCO4)cc(OC)c1O (stereo unspecified): t
O=C(NO)c1ccc(Cn2c(=O)n(-c3ccccc3)c(=O)c3ccccc32)cc1: f
COc1ccc(C(=O)/C=C/c2c[n+](=O)c3ccc(F)cc3n2[O-])cc1: f
O=C1/C(=C\c2cccn2Cc2ccc(F)cc2)c2ccccc2N1c1c(Cl)cccc1Cl: t

Consider the record given below.
query: For Nc1cc(-c2ccncc2)c[nH]c1=O , what call appears in the results of this test?
result: f
